B1: human ASPP1^882-1090 [human] / human PP1β^6-327 [human] (parent complex)
chain 1: LRVRFNPLALLLDASLEGEFDLVQRIIYEVEDPSKPNDEGITPLHNAVCAGHHHIVKFLLDFGVNVNAADSDGWTPLHCAASCNSVHLCKQLVESGAAIFASTISDIETAADKCEEMEEGYIQCSQFLYGVQEKLGVMNKGVAYALWDYEAQNSDELSFHEGDALTILRRKDESETEWWWARLGDREGYVPKNLLGLYPRIKPRQRTLA
chain 2: LNVDSLITRLLEVRGCRPGKIVQMTEAEVRGLCIKSREIFLSQPILLELEAPLKICGDIHGQYTDLLRLFEYGGFPPEANYLFLGDYVDRGKQSLETICLLLAYKIKYPENFFLLRGNHECASINRIYGFYDECKRRFNIKLWKTFTDCFNCLPIAAIVDEKIFCCHGGLSPDLQSMEQIRRIMRPTDVPDTGLLCDLLWSDPDKDVQGWGENDRGVSFTFGADVVSKFLNRHDLDLICRAHQVVEDGYEFFAKRQLVTLFSAPNYCGEFDNAGGMMSVDETLMCSFQILKPSEKKAKYQYGGLNSGRPVTPPRTANPPKKR

variants of: B1; experiment: BLI
RECORDED_METRIC: Kd (nM)
One number for each entry, in nM.

Prompt line: Give its Kd value. Item: chain 1 K171E, chain 1 S174D
Response line: 84.4
